Reported values of IC50 for individual entries
- systemUnderTest: bovine cardiac myosin (Bos taurus, UniProt Q9BE39)
- Construct: The source of cardiac myosin was from bovine heart in the form of skinned myofibrils; from tissue; host or cells: bovine heart (skinned myofibrils)
- Sequence (Q9BE39 whole entry): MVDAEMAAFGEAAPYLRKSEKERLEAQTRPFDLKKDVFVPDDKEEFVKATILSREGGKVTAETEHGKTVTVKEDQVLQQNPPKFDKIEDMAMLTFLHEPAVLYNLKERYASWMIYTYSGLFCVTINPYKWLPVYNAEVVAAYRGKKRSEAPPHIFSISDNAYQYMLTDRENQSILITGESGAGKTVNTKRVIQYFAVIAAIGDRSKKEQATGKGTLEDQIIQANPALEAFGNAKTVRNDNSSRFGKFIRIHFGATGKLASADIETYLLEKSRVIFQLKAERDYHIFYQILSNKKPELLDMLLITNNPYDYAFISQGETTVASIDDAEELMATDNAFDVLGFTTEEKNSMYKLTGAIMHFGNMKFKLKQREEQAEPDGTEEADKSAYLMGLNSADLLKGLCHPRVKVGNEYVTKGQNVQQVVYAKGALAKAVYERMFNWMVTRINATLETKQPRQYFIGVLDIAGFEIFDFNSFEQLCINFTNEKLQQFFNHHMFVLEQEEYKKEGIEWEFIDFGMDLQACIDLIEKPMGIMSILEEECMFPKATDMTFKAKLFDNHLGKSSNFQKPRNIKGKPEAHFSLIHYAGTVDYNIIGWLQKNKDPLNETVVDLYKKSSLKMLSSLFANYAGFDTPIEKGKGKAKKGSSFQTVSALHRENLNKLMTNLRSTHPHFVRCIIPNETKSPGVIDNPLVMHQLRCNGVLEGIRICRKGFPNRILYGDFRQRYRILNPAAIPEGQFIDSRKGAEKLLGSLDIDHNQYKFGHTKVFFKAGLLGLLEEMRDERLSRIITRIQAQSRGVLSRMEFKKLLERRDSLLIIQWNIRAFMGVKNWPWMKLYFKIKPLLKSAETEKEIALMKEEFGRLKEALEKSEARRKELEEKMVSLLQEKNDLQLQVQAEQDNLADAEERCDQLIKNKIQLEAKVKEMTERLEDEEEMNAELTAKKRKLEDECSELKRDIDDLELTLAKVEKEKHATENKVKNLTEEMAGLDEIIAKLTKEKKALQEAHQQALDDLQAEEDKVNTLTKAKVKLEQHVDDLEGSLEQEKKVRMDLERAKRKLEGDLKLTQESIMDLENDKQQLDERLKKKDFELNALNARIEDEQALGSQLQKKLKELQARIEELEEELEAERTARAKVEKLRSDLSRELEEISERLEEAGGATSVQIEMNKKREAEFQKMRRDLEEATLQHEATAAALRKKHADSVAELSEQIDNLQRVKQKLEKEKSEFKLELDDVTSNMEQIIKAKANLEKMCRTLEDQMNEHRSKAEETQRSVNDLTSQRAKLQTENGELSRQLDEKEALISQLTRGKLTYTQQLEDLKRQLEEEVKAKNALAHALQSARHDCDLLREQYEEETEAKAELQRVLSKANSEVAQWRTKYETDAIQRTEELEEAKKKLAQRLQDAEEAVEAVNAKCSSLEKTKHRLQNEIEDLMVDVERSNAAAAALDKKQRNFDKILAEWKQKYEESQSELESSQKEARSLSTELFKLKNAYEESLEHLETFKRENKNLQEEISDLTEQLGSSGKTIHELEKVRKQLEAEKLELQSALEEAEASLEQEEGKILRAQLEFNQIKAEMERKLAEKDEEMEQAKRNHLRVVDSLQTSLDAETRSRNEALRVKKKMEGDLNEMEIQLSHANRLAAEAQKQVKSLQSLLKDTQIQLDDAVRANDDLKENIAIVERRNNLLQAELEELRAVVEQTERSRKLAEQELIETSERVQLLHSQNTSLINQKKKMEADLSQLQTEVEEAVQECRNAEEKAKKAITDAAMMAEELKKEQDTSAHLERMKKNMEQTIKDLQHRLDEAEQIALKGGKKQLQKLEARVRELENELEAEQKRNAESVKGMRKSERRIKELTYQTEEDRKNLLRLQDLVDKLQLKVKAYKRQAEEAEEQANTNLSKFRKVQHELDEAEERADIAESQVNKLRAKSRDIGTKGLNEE
- Sequence (P85100 whole entry partner): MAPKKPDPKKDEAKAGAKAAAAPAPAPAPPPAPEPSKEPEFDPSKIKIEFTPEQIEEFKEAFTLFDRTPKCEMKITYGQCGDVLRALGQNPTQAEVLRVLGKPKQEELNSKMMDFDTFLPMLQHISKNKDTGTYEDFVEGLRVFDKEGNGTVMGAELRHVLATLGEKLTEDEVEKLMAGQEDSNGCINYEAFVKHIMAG
- Sequence (Q3SZE5 whole entry partner): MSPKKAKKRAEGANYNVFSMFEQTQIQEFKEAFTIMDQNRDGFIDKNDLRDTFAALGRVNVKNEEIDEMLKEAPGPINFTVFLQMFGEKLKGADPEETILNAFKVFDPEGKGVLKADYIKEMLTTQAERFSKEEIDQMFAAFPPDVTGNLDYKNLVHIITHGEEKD
- assayProtocol: Myosin inhibition assay (PK/LDH-coupled ATPase, bovine cardiac myofibrils)
- Assay type: biochemical
- conditionContext: calcium concentration giving 75% activation (pCa75), read-out: Biochemical Activity (pCa75)

Solved cases (3 shown):
CC(C)n1c(=O)cc(NCCC2CCOCC2)[nH]c1=O; > 15000 nM
CC(C)n1c(=O)cc(N[C@@H](C)CC2CCOCC2)[nH]c1=O; 1000 to 15000 nM
CC(C)n1c(=O)cc(NCC2CCC2)[nH]c1=O; > 15000 nM

// query Lab note: need IC50 with bovine cardiac myosin (Bos taurus, UniProt Q9BE39) for entry CC(C)n1c(=O)cc(N[C@@H](C)C2CCC(F)(F)CC2)[nH]c1=O , please look it up.
// result < 1000 nM

// query Record lookup: for bovine cardiac myosin (Bos taurus, UniProt Q9BE39), what IC50 belongs to CC(C)n1c(=O)cc(NCC2CCCCCC2)[nH]c1=O ?
// result < 1000 nM

---

- systemUnderTest: bovine cardiac myosin (Bos taurus, UniProt Q9BE39)
- Construct: The source of cardiac myosin was from bovine heart in the form of skinned myofibrils; from tissue; host or cells: bovine heart (skinned myofibrils)
- assayProtocol: Myosin inhibition assay (PK/LDH-coupled ATPase, bovine cardiac myofibrils)
- Assay type: biochemical
- conditionContext: calcium concentration giving 50% activation (pCa50), read-out: Biochemical Activity (pCa50)
pIC50: −log10 of the molar value.
measure: pIC50

C[C@@H](CC1CC(F)(F)C1)Nc1cc(=O)n(-c2cc(F)cc(F)c2)c(=O)[nH]1; 4.82 to 6.00

Next compound, pIC50 to be filled in.
// query Would you kindly share the measured pIC50 for C[C@@H](CC1CCC(F)(F)CC1)Nc1cc(=O)n(-c2cc(F)cc(F)c2)c(=O)[nH]1 ?
// result > 6.00

---

- systemUnderTest: bovine cardiac myosin (Bos taurus, UniProt Q9BE39)
- Construct: The source of cardiac myosin was from bovine heart in the form of skinned myofibrils; from tissue; host or cells: bovine heart (skinned myofibrils)
- assayProtocol: Myosin inhibition assay (PK/LDH-coupled ATPase, bovine cardiac myofibrils)
- Type: biochemical
- conditionContext: calcium concentration giving 75% activation (pCa75), read-out: Biochemical Activity (pCa75)
Let's look at some compounds and their measured IC50.

Answered cases to consult:
CC(C)n1c(=O)cc(N[C@@H](C)CC2CCC(F)(F)CC2)[nH]c1=O [Compound 3]; < 1000 nM
CC(C)n1c(=O)cc(NCC2CCCC2)[nH]c1=O [Compound 2]; > 15000 nM
CC(C)n1c(=O)cc(NCC2CCCCC2)[nH]c1=O [Compound 1]; 1000 to 15000 nM

// query Param readout= IC50; system= bovine cardiac myosin (Bos taurus, UniProt Q9BE39); entry= CC(C)n1c(=O)cc(N[C@@H](C)CC2CC(F)(F)C2)[nH]c1=O [Compound 10] ; returns value.
// result 1000 to 15000 nM

---

# Lookup of reported IC50 keyed by entry
- systemUnderTest: bovine cardiac myosin (Bos taurus)
- Construct: The source of cardiac myosin was from bovine heart in the form of skinned myofibrils; from tissue; host or cells: bovine heart (skinned myofibrils)
- assayProtocol: Myosin inhibition assay (PK/LDH-coupled ATPase, bovine cardiac myofibrils)
- Type: biochemical
- conditionContext: calcium concentration giving 75% activation (pCa75), read-out: Biochemical Activity (pCa75)

Answered cases to consult:
CC(C)n1c(=O)[nH]c(N[C@@H](C)C2CCC(F)(F)CC2)c(F)c1=O; < 1000 nM
C[C@H](Nc1cc(=O)n(C2CCOCC2)c(=O)[nH]1)C1CCC(F)(F)CC1; 1000 to 15000 nM
CC(C)n1c(=O)cc(N[C@@H](C)C2CCCCC2)[nH]c1=O; < 1000 nM

// query Query for bovine cardiac myosin (Bos taurus): what IC50 does the record show for C[C@H](Nc1cc(=O)n(C2CCN(S(C)(=O)=O)CC2)c(=O)[nH]1)C1CCCCC1 ?
// result < 1000 nM
